Recorded values, source ChEMBL document CHEMBL4699588.

Biological target: Proteasome Macropain subunit MB1 (Homo sapiens, UniProt P28074)
Sequence (P28074 whole entry): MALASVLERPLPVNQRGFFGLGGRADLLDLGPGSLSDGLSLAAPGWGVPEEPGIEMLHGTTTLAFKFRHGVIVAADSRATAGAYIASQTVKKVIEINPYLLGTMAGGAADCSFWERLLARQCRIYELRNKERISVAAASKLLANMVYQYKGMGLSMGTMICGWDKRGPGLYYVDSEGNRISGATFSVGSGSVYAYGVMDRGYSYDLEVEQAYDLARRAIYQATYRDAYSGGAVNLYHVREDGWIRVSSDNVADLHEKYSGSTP
Test: Inhibition of human constitutive 20S proteasome beta 5 chymotrypsin-like activity
measurement name: IC50 (nM)

Solved cases (2 shown):
COC[C@H](NC(=O)[C@H](CC(=O)NOC(C)(C)C)NC(=O)CCc1ccccc1)C(=O)NCc1cccc2cccnc12 : 1040
COC[C@H](NC(=O)[C@H](CC(=O)NOC(C)(C)C)NC(=O)CCc1ccccc1)C(=O)NCc1cccc(OC)c1OC : 980

1: C[C@H](NC(=O)[C@H](CC(=O)NOC(C)(C)C)NC(=O)CCc1ccccc1)C(=O)NCc1cccc2ncccc12
2: COC[C@H](NC(=O)[C@H](CC(=O)NOC(C)(C)C)NC(=O)CCc1ccccc1)C(=O)NCc1cccc(OC)c1
Looking at recorded values for IC50, does 1 or 2 come in lower? Answer by stating the label of the chosen item. 2
(2: 101 nM, 1: 12700 nM)
